Recorded below: log10 of Ki, system D(2) dopamine receptor (Homo sapiens).
property_label: log10 of Ki (log10 of the value in nM)

{"line_notation": "CN(C)[C@@H]1Cc2cccc3[nH]c(=O)n(c23)C1", "log10 of Ki": 1.08}
{"line_notation": "CN[C@@H]1Cc2cccc3ncn(c23)C1", "log10 of Ki": 2.55}
{"line_notation": "CC(C)C[C@H]1C(=O)N2CCC[C@H]2[C@]2(O)O[C@](NC(=O)[C@@H]3C=C4c5cccc6[nH]c(Br)c(c56)C[C@H]4N(C)C3)(C(C)C)C(=O)N12", "log10 of Ki": 1.00}
{"line_notation": "CN(C)[C@@H]1Cc2cccc3ncn(c23)C1", "log10 of Ki": 3.11}
{"line_notation": "CCCN(CCC)CCc1cccc2c1CC(=O)N2", "log10 of Ki": 0.86}

###

Recorded Ki, one value per entry.
biological target: D(3) dopamine receptor (Homo sapiens, UniProt P35462)
Sequence (P35462 whole entry): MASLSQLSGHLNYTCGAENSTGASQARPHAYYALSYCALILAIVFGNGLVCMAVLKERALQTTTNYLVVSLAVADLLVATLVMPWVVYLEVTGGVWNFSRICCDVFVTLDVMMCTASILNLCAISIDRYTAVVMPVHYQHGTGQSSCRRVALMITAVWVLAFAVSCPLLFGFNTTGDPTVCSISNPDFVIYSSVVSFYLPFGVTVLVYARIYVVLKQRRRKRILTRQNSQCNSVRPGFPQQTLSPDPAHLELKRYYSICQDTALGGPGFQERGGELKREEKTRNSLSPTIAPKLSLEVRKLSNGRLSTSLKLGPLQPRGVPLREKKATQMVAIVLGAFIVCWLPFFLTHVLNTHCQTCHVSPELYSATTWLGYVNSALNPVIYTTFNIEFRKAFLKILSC

{"molecule": "CCCN[C@@H]1Cc2cccc3nc(O)n(c23)C1", "target_of_assay": "D(3) dopamine receptor (Homo sapiens, UniProt P35462)", "unit": "nM", "Ki": 36}
{"molecule": "CN(C)[C@@H]1Cc2cccc3ncn(c23)C1", "target_of_assay": "D(3) dopamine receptor (Homo sapiens, UniProt P35462)", "unit": "nM", "Ki": 2950}
{"molecule": "CN(C)[C@@H]1Cc2cccc3[nH]c(=O)n(c23)C1", "target_of_assay": "D(3) dopamine receptor (Homo sapiens, UniProt P35462)", "unit": "nM", "Ki": 1930}
{"molecule": "CN[C@@H]1Cc2cccc3ncn(c23)C1", "target_of_assay": "D(3) dopamine receptor (Homo sapiens, UniProt P35462)", "unit": "nM", "Ki": 2460}
{"molecule": "CC(C)C[C@H]1C(=O)N2CCC[C@H]2[C@]2(O)O[C@](NC(=O)[C@@H]3C=C4c5cccc6[nH]c(Br)c(c56)C[C@H]4N(C)C3)(C(C)C)C(=O)N12 [BROMOCRIPTINE]", "target_of_assay": "D(3) dopamine receptor (Homo sapiens, UniProt P35462)", "unit": "nM", "Ki": 87}
{"molecule": "CN[C@@H]1Cc2cccc3[nH]c(=O)n(c23)C1 [SUMANIROLE]", "target_of_assay": "D(3) dopamine receptor (Homo sapiens, UniProt P35462)", "unit": "nM", "Ki": 2330}

###

Recorded pKi, one value per entry.
molecular target: 5-hydroxytryptamine receptor 1A (Homo sapiens)
Sequence (P08908 whole entry): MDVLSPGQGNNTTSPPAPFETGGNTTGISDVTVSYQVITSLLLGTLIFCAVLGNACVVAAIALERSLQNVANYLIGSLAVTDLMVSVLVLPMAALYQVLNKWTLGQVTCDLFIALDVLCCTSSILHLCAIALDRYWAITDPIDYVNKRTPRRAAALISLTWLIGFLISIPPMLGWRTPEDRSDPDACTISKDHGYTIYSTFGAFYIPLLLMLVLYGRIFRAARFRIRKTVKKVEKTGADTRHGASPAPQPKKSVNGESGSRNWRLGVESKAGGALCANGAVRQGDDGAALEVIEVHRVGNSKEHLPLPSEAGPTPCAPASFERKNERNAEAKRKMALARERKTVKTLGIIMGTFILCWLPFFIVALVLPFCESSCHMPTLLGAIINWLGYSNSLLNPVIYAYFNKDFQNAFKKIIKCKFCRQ
pKi: −log10 of the molar value.

{"line_notation": "CCCN(CCC)CCc1cccc2c1CC(=O)N2", "comparison_sign": "=", "pKi": 5.77}
{"line_notation": "CC(C)C[C@H]1C(=O)N2CCC[C@H]2[C@]2(O)O[C@](NC(=O)[C@@H]3C=C4c5cccc6[nH]c(Br)c(c56)C[C@H]4N(C)C3)(C(C)C)C(=O)N12", "comparison_sign": "=", "pKi": 7.62}
{"line_notation": "CN(C)[C@@H]1Cc2cccc3ncn(c23)C1", "comparison_sign": "<", "pKi": 5.45}
{"line_notation": "CN[C@@H]1Cc2cccc3ncn(c23)C1", "comparison_sign": "<", "pKi": 5.49}
{"line_notation": "CN[C@@H]1Cc2cccc3[nH]c(=O)n(c23)C1", "comparison_sign": "=", "pKi": 7.14}
